- tested_target: Human BACE-2 (Homo sapiens (Human), UniProt Q9Y5Z0)
- Sequence (Q9Y5Z0 63-473): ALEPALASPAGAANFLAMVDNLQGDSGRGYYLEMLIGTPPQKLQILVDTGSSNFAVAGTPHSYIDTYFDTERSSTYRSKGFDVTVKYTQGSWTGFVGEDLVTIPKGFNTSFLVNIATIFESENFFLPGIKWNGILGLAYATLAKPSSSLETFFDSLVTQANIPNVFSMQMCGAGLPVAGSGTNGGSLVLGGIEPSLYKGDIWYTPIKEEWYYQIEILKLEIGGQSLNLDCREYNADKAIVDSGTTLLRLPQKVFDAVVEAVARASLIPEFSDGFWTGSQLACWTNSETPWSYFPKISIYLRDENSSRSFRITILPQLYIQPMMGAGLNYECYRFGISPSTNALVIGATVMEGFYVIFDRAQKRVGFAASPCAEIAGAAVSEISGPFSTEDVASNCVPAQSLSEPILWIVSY
- assay_name: Test 2: Inhibition of Human BACE-2
- measurement_context: recombinant BACE-2, pH 4.5, 1 hour preincubation
reported_endpoint: IC50

>>> result("C[C@]1(c2nc(NC(=O)c3ncc(Cl)cc3N)ccc2F)N=C(N)OCC1(F)F")
"0.048 µM"
>>> result("C[C@]1(c2nc(NC(=O)c3ncc(OCCCl)nc3N)ccc2F)N=C(N)OCC1(F)F")
"> 10 µM"
>>> result("C[C@]1(c2nc(NC(=O)c3ncc(OCCCF)nc3N)ccc2F)N=C(N)OCC1(F)F")
"> 10 µM"
>>> result("CC(F)(F)c1nc(N)c(C(=O)Nc2ccc(F)c([C@@]3(C)N=C(N)OCC3(F)F)n2)nc1Cl")
"> 10 µM"

----------
Each entry below lists one item and its recorded pIC50 value.
- tested_target: Human BACE-1 (Homo sapiens (Human), UniProt P56817)
- Sequence (P56817 46-457): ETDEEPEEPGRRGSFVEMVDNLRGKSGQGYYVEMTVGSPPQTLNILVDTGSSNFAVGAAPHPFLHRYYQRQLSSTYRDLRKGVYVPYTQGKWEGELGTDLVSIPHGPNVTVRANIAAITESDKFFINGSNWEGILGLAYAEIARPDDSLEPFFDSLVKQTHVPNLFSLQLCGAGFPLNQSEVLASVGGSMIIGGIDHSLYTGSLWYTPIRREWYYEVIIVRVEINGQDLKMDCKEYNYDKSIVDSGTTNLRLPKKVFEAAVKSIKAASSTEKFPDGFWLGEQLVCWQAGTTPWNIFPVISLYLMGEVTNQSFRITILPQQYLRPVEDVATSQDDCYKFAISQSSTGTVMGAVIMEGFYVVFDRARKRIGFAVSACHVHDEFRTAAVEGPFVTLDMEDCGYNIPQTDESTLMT
- assay_name: Test 1: Inhibition of Human BACE-1
- measurement_context: recombinant BACE-1, pH 4.5, 1 hour preincubation
pIC50: −log10 of the molar value.
reported_endpoint: pIC50

>>> numeric_value("C[C@]1(c2nc(NC(=O)c3ncc(OCC(F)(F)F)nc3N)ccc2F)N=C(N)OCC1(F)F [Example 10]")
6.23
>>> numeric_value("C[C@]1(c2nc(NC(=O)c3ncc(C#CCO)cc3Cl)ccc2F)N=C(N)OCC1(F)F [Example 32]")
7.22
>>> numeric_value("COCCOc1cnc(C(=O)Nc2ccc(F)c([C@@]3(C)N=C(N)OCC3(F)F)n2)c(N)n1 [Example 16]")
6.92
>>> numeric_value("C[C@]1(c2nc(NC(=O)c3ncc(F)cc3N)ccc2F)N=C(N)OCC1(F)F [Example 18]")
6.48
>>> numeric_value("COCCc1cnc(C(=O)Nc2ccc(F)c([C@@]3(C)N=C(N)OCC3(F)F)n2)c(N)n1 [Example 29]")
6.82
>>> numeric_value("C[C@]1(c2nc(NC(=O)c3ncc(OCF)nc3N)ccc2F)N=C(N)OCC1(F)F [Example 15]")
6.96
>>> numeric_value("CCOc1cnc(C(=O)Nc2ccc(F)c([C@@]3(C)N=C(N)OCC3(F)F)n2)c(Cl)c1 [Example 27]")
6.54
>>> numeric_value("C[C@]1(c2nc(NC(=O)c3ncc(OCC(F)F)nc3N)ccc2F)N=C(N)OCC1(F)F [Example 11]")
6.08
>>> numeric_value("[2H]C([2H])([2H])C([2H])([2H])Oc1cnc(C(=O)Nc2ccc(F)c([C@@]3(C)N=C(N)OCC3(F)F)n2)c(N)n1 [Example 28]")
5.72
>>> numeric_value("C[C@]1(c2nc(NC(=O)c3nn(C(F)F)cc3Cl)ccc2F)N=C(N)OCC1(F)F [Example 30]")
7.72
>>> numeric_value("C[C@]1(c2nc(NC(=O)c3ncc(OCCCF)nc3N)ccc2F)N=C(N)OCC1(F)F [Example 12]")
5.92
>>> numeric_value("C[C@]1(c2nc(NC(=O)c3ncc(OCCF)nc3N)ccc2F)N=C(N)OCC1(F)F [Example 25]")
6.24
>>> numeric_value("CC(F)(F)c1cnc(C(=O)Nc2ccc(F)c([C@@]3(C)N=C(N)OCC3(F)F)n2)c(N)n1 [Example 37]")
7.19
>>> numeric_value("C[C@]1(c2nc(NC(=O)c3ncc(C#N)cc3Cl)ccc2F)N=C(N)OCC1(F)F [Example 2]")
7.92
>>> numeric_value("C[C@]1(c2nc(NC(=O)c3ncc(Cl)cc3N)ccc2F)N=C(N)OCC1(F)F [Example 19]")
7.22
>>> numeric_value("C[C@]1(c2nc(NC(=O)c3ncc(C(F)(F)F)nc3N)ccc2F)N=C(N)OCC1(F)F [Example 8]")
6.80
>>> numeric_value("C[C@]1(c2nc(NC(=O)c3ncc(Cl)cc3Cl)ccc2F)N=C(N)OCC1(F)F [Example 9]")
7.74
>>> numeric_value("C[C@]1(c2nc(NC(=O)c3ncccc3Cl)ccc2F)N=C(N)OCC1(F)F [Example 20]")
6.44
>>> numeric_value("C[C@]1(c2nc(NC(=O)c3ncc(C#CCO)cc3N)ccc2F)N=C(N)OCC1(F)F [Example 17]")
6.62
>>> numeric_value("C[C@]1(c2nc(NC(=O)c3ncc(OCC(F)F)cc3Cl)ccc2F)N=C(N)OCC1(F)F [Example 24]")
6.62
>>> numeric_value("C[C@]1(c2nc(NC(=O)c3ncc(OCF)cc3Cl)ccc2F)N=C(N)OCC1(F)F [Example 26]")
6.96
>>> numeric_value("COCC[C@]1(c2nc(NC(=O)c3ncc(C(F)(F)F)cc3Cl)ccc2F)N=C(N)OCC1(F)F [Example 6]")
6.19
>>> numeric_value("COCC#Cc1cnc(C(=O)Nc2ccc(F)c([C@@]3(C)N=C(N)OCC3(F)F)n2)c(Cl)c1 [Example 21]")
7.08

----------
- tested_target: Human BACE-2 (Homo sapiens (Human), UniProt Q9Y5Z0)
- assay_name: Test 2: Inhibition of Human BACE-2
- measurement_context: recombinant BACE-2, pH 4.5, 1 hour preincubation
- Protocol: Test 2: Inhibition of Human BACE-2 Recombinant BACE-2 (extracellular domain, expressed in baculovirus and purified using standard methods) at 0.1 to 1 nM concentrations is incubated with the test compound at various concentrations for 1 hour at room temperature in 100 mM acetate buffer, pH 4.5, containing 0.1% CHAPS. […] Fluorescence increase was followed for 15 min, in 1 minute's intervals. […]
reported_endpoint: IC50 (nM)

>>> numeric_value("C[C@]1(c2nc(NC(=O)c3ncc(OCF)cc3Cl)ccc2F)N=C(N)OCC1(F)F")
27
>>> numeric_value("C[C@]1(c2nc(NC(=O)c3ncc(OCC(F)F)cc3Cl)ccc2F)N=C(N)OCC1(F)F")
4500
>>> numeric_value("C[C@]1(c2nc(NC(=O)c3ncccc3Cl)ccc2F)N=C(N)OCC1(F)F")
95
>>> numeric_value("C[C@]1(c2nc(NC(=O)c3nccnc3N)ccc2F)N=C(N)OCC1(F)F")
490
>>> numeric_value("C[C@]1(c2nc(NC(=O)c3ncc(F)cc3N)ccc2F)N=C(N)OCC1(F)F")
120
>>> numeric_value("COCCc1cnc(C(=O)Nc2ccc(F)c([C@@]3(C)N=C(N)OCC3(F)F)n2)c(N)n1")
5600
>>> numeric_value("C[C@]1(c2nc(NC(=O)c3ncc(OCF)nc3N)ccc2F)N=C(N)OCC1(F)F")
730
>>> numeric_value("COCC[C@]1(c2nc(NC(=O)c3ncc(C(F)(F)F)cc3Cl)ccc2F)N=C(N)OCC1(F)F")
6600
